FYI, the data here is from patent EP1117659B1.

Test system: SW620
PROTOCOL DESCRIPTION: Inhibition of Cancer Cell Growth as Measured by Cell Number (Sulforhodamine B)
Assay type: cell-based, Human
COND: Homo sapiens, SW-620, 48 h, 48 hours exposure
Listed here: items and their measured IC50.
Kindly provide the numeric value in µg/mL only, without the unit symbol.

Check out these entries, answers already filled in.
CCOc1cc2ncc(C#N)c(Nc3ccc4[nH]c(=O)oc(=O)c4c3)c2cc1OCC [Example 109] | 2.92
CCOc1cc2ncc(C#N)c(Nc3ccc4cc[nH]c4c3)c2cc1OCC [Example 101] | 0.326
CCOc1cc2ncc(C#N)c(Nc3ccc4[nH]nnc4c3)c2cc1OCC [Example 103] | 2.64
CCOc1cc2c(Nc3ccc4cn[nH]c4c3)c(C#N)cnc2cc1OC [Example 126] | 4.31
COc1cc2ncc(C#N)c(Nc3ccc4cn[nH]c4c3)c2cc1OC [Example 102] | 2.18

Now for the molecule whose IC50 we want.
Query: Need IC50 of CCOc1cc2ncc(C#N)c(Nc3ccc4c(c3)C(=O)OC4)c2cc1OCC [Example 111] , thanks.
Response: 1.56

====

Tested on: A2780
PROTOCOL DESCRIPTION: Inhibition of Cancer Cell Growth as Measured by Cell Number (Sulforhodamine B)
Format: cell-based
COND: Homo sapiens, 48 hours exposure
# if measured IC50 < 0.2 µg/mL: Met  # else: Not met

Examples with answers:
CCOc1cc2ncc(C#N)c(Nc3ccc4c(c3)C(=O)NC4=O)c2cc1OCC [Example 104] | Met
COc1cc2ncc(C#N)c(Nc3ccc4cn[nH]c4c3)c2cc1OC [Example 102] | Not met
CCOc1cc2ncc(C#N)c(Nc3ccc4cn[nH]c4c3)c2cc1OCC [Example 99] | Met
CCOc1cc2ncc(C#N)c(Nc3ccc4[nH]nnc4c3)c2cc1OCC [Example 103] | Not met
CCOc1cc2ncc(C#N)c(Nc3ccc4c(C)cc(=O)oc4c3)c2cc1OCC [Example 100] | Not met

Query: Regarding CCOc1cc2ncc(C#N)c(Nc3ccc4cc[nH]c4c3)c2cc1OCC [Example 101] , kindly confirm whether its IC50 is beneath 0.2 µg/mL.
Response: Not met

====

A short record of IC50 observed with Epithelial Cell Kinase (ECK) (Homo sapiens) follows.
Sequence (P29317 24-976, species assumed): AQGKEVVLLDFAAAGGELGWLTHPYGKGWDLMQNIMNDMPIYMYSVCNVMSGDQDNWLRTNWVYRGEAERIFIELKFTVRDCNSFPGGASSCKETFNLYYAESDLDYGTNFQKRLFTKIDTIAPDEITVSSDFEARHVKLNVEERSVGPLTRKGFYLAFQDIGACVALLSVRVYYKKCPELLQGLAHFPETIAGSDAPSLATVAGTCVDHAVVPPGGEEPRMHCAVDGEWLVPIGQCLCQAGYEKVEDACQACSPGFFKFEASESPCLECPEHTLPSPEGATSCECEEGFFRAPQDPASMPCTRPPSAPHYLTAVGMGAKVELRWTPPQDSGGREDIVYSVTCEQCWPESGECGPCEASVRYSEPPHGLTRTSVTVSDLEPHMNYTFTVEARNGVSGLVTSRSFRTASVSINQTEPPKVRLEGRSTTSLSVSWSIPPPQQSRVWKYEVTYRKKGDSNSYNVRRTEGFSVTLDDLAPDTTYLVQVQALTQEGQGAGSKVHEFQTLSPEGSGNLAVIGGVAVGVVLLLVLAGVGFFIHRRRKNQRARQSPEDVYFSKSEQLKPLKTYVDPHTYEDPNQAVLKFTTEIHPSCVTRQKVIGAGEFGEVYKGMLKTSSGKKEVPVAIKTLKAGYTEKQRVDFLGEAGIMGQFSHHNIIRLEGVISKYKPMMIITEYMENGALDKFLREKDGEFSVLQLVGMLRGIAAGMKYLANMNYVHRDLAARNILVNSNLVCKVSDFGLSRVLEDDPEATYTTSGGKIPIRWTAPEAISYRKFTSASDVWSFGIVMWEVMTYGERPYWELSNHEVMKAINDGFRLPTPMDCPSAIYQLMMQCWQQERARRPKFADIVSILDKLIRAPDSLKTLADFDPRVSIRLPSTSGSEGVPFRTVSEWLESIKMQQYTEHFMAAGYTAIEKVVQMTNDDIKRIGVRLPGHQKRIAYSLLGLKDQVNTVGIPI
Counter-ions that a name gives are not always drawn.

Check out these entries, answers already filled in.
COc1cc2c(Nc3ccc4cn[nH]c4c3)c(C#N)cnc2cc1OCCN1CCOCC1 [Example 168] | > 22.5 µM
CCOc1cc2ncc(C#N)c(Nc3ccc4ncsc4c3)c2cc1OCC [Example 97, HCl Salt] | > 2.56 µM

Query: Need IC50 of COc1cc2ncc(C#N)c(Nc3ccc(Cl)c4ccccc34)c2cc1OC [Example 154] , thanks.
Response: 0.77 µM

Query: Need IC50 of COc1cc2ncc(C#N)c(Nc3cccc4cccnc34)c2cc1OC [Example 134] , thanks.
Response: > 28.1 µM

Query: Need IC50 of COc1cc2ncc(C#N)c(Nc3ccc4c(C)cc(=O)[nH]c4c3)c2cc1OC [Example 129] , thanks.
Response: > 25.9 µM

Query: Need IC50 of CCOc1cc2ncc(C#N)c(Nc3ccc4cn[nH]c4c3)c2cc1OC [Example 115] , thanks.
Response: > 27.8 µM

====

SYSTEM TESTED: Kinase insert Domain containing Receptor (KDR: the catalytic domain of the VEGF receptor) (Homo sapiens, UniProt P35968)
Sequence (P35968 834-1162 limits assumed): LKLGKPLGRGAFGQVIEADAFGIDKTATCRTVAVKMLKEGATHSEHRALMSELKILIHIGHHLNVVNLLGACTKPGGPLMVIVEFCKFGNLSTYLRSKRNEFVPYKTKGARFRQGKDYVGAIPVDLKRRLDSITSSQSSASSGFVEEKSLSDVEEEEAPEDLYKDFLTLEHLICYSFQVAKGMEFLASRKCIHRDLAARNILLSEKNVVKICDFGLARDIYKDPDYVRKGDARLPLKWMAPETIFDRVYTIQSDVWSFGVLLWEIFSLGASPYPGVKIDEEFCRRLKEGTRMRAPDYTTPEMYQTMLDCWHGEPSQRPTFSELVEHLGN
PARAMETER: IC50

Check out these entries, answers already filled in.
COc1cc2ncc(C#N)c(Nc3ccc4[nH]cnc4c3)c2cc1OC | 29 µM
COc1cccc2c(Nc3ccc4cn[nH]c4c3)c(C#N)cnc12 | > 95.1 µM
CCOc1cc2ncc(C#N)c(Nc3ccc4c(c3)S(=O)(=O)C=C4)c2cc1OCC | > 71.2 µM
CCOc1cc2ncc(C#N)c(Nc3ccc4cn[nH]c4c3)c2cc1OCC | 21.4 µM
COc1ccc2ncc(C#N)c(Nc3ccc4cn[nH]c4c3)c2c1 | 63.4 µM

Query: Need IC50 of `CCOc1cc2ncc(C#N)c(Nc3ccc4c(c3)C(=O)NCC(=O)N4C)c2cc1OCC` , thanks.
Response: > 67.3 µM

Query: Need IC50 of `COc1cc2ncc(C#N)c(Nc3cccc4cccnc34)c2cc1OC` , thanks.
Response: > 28.1 µM

Query: Need IC50 of `COc1ccc(OC)c2c(Nc3ccc4cn[nH]c4c3)c(C#N)cnc12` , thanks.
Response: > 86.9 µM

Query: Need IC50 of `CCOc1cc2ncc(C#N)c(Nc3ccc4[nH]c(=O)oc(=O)c4c3)c2cc1OCC` , thanks.
Response: 23.9 µM

====

SYSTEM TESTED: Recombinant human MEK 1 (MAPKK) / recombinant human ERK2 (MAPK) (Mek-Erk) (Homo sapiens, UniProt P28482+Q02750)
Sequence (P28482 2-360): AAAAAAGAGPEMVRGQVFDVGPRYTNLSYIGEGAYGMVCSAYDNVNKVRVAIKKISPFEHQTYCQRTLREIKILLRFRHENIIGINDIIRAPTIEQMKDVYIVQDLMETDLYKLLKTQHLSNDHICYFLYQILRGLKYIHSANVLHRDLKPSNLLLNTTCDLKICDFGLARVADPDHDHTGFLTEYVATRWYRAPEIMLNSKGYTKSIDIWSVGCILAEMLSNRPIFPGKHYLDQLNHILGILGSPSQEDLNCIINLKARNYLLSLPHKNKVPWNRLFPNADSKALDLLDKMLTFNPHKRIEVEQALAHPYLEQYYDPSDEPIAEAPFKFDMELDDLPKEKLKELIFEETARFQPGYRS
Sequence (Q02750 whole entry): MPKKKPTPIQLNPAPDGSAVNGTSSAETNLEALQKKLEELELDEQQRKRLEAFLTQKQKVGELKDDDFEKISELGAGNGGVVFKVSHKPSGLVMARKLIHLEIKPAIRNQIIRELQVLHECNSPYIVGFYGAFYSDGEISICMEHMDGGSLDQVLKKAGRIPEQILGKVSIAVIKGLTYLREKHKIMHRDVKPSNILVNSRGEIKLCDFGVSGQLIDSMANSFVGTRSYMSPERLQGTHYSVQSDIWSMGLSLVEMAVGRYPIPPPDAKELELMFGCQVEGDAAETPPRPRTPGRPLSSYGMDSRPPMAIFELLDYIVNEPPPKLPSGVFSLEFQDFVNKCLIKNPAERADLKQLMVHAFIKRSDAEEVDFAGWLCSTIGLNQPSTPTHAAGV
PROTOCOL DESCRIPTION: Mitogen Activated Protein Kinase (MAPK) assay, two component coupled Mek-Erk test
Type: biochemical
COND: read-out: Mek-Erk µM
Where a name gives a salt, the structure may show the parent alone.
Listed here: items and their measured IC50.
Kindly provide the numeric value in µM only, without the unit symbol.

COc1cc2c(Nc3ccc4nn[nH]c4c3)c(C#N)cnc2c(OC)c1OC [Example 156] | 35

Query: Need IC50 of CCOc1cc2ncc(C#N)c(Nc3ccc4ncsc4c3)c2cc1OCC [Example 97, HCl Salt] , thanks.
Response: 55

Query: Need IC50 of COc1cc2ncc(C#N)c(Nc3ccc4cn[nH]c4c3)c2cc1OCCCN1CCOCC1 [Example 139, hydrochloride] , thanks.
Response: 15

====

Listed here: items and their measured pIC50.
SYSTEM TESTED: Kinase insert Domain containing Receptor (KDR: the catalytic domain of the VEGF receptor) (Homo sapiens, UniProt P35968)
pIC50: −log10 of the molar value.

COc1cc2ncc(C#N)c(Nc3ccc4ncccc4c3)c2cc1OC | < 4.55

Query: Need pIC50 of `COc1cc2ncc(C#N)c(Nc3ccc4cn[nH]c4c3)c2cc1OC` , thanks.
Response: 4.85

Query: Need pIC50 of `COc1cc2ncc(C#N)c(Nc3ccc4c(C)cc(=O)[nH]c4c3)c2cc1OC` , thanks.
Response: < 4.59

====

A short record of IC50 observed with UniProtKB P29317 follows.

COc1cc2c(Nc3ccc4cn[nH]c4c3)c(C#N)cnc2cc1OCCCl | 0.762 µM

Now for the molecule whose IC50 we want.
Query: Need IC50 of `COc1cc2ncc(C#N)c(Nc3ccc4[nH]c(=O)sc4c3)c2cc1OC` , thanks.
Response: > 26.4 µM

====

Tested on: SW620
PROTOCOL DESCRIPTION: Inhibition of Cancer Cell Growth as Measured by Cell Number (Sulforhodamine B)
Format: cell-based, Human
COND: Homo sapiens, SW-620, 48 h, 48 hours exposure
Listed here: items and their measured IC50.
Kindly provide the numeric value in µg/mL only, without the unit symbol.

CCOc1cc2ncc(C#N)c(Nc3ccc4cn[nH]c4c3)c2cc1OC | 0.0212
CCOc1cc2ncc(C#N)c(Nc3ccc4c(C)cc(=O)oc4c3)c2cc1OCC | 0.325
CCOc1cc2ncc(C#N)c(Nc3ccc4c(c3)C(=O)NC4=O)c2cc1OCC | 0.207

Query: Need IC50 of `CCOc1cc2ncc(C#N)c(Nc3ccc4c(c3)S(=O)(=O)C=C4)c2cc1OCC` , thanks.
Response: 0.146

Query: Need IC50 of `CCOc1cc2ncc(C#N)c(Nc3ccc4cn[nH]c4c3)c2cc1OCC` , thanks.
Response: 0.033

====

SYSTEM TESTED: Recombinant human MEK 1 (MAPKK) / recombinant human ERK2 (MAPK) (Mek-Erk) (Homo sapiens, UniProt P28482+Q02750)
PROTOCOL DESCRIPTION: Mitogen Activated Protein Kinase (MAPK) assay, two component coupled Mek-Erk test
Assay type: biochemical
COND: read-out: Mek-Erk
PARAMETER: pIC50
In simple prose, pIC50 is minus the logarithm base ten of a concentration in moles per litre.

CCOc1cc2ncc(C#N)c(Nc3ccc4cn[nH]c4c3)c2cc1OC | 4.60

Query: Need pIC50 of `COc1ccc2c(Nc3ccc4cn[nH]c4c3)c(C#N)cnc2c1` , thanks.
Response: 5.70

====

Listed here: items and their measured pIC50.
SYSTEM TESTED: epidermal growth factor receptor kinase (EGF-R Kinase, recombinant enzyme; His-tagged cytoplasmic domain of EGFR) (Homo sapiens, UniProt P00533)
Construct: EGFR cDNA encoding amino acids 645 - 1186 preceded by Met-Ala-(His)6; Met-Ala-(His)6 (N)
Sequence (P00533 669-1210): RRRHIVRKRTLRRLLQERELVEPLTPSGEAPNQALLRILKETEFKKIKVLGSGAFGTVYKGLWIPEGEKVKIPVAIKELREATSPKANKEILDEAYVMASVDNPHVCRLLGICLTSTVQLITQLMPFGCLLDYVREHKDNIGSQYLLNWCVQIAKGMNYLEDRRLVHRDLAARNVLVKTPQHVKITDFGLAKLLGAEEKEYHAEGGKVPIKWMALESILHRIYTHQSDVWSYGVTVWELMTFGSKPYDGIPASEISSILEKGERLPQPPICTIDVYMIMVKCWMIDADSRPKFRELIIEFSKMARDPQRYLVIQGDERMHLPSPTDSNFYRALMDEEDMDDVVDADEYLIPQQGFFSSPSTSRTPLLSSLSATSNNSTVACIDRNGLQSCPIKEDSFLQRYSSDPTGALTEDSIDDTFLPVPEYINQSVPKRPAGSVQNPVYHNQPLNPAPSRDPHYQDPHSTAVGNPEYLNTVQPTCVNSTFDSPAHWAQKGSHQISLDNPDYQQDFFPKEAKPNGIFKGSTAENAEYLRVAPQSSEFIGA
PROTOCOL DESCRIPTION: Inhibition of Epidermal Growth Factor Receptor Kinase (EGF-R) using recombinant enzyme, RR-SRC peptide phosphorylation, 33P-ATP
COND: recombinant enzyme; 90 min at room temperature
pIC50: −log10 of the molar value.

COc1cc2ncc(C#N)c(Nc3cccc4ncccc34)c2cc1OC | < 6.00
COc1cc2ncc(C#N)c(Nc3cccc4[nH]ccc34)c2cc1OC | < 6.00
COc1cc2ncc(C#N)c(Nc3ccc(O)c4ncccc34)c2cc1OC | < 6.00
COc1ccc2ncc(C#N)c(Nc3ccc4cn[nH]c4c3)c2c1 | < 6.00
COc1cc2ncc(C#N)c(Nc3ccc(Sc4nccn4C)c(Cl)c3)c2cc1OC | 6.30
CCOc1cc2ncc(C#N)c(Nc3ccc(Sc4nccn4C)c(Cl)c3)c2cc1OCC | 7.05
COc1cccc2c(Nc3ccc4cn[nH]c4c3)c(C#N)cnc12 | < 6.00

Now for the molecule whose pIC50 we want.
Query: Need pIC50 of `COc1cc2ncc(C#N)c(Nc3cccc4cccnc34)c2cc1OC` , thanks.
Response: < 6.00
